- Assayed system: UniProtKB Q99N23
- Sequence (Q99N23 whole entry): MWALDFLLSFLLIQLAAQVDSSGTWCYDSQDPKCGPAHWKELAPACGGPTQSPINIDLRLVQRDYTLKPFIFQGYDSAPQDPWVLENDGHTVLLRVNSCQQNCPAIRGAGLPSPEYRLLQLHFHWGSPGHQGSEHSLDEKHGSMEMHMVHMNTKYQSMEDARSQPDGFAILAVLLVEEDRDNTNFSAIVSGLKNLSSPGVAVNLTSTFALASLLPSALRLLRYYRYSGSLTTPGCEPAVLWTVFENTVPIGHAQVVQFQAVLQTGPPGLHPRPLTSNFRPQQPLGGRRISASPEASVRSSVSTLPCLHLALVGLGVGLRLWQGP
pKi: −log10 of the molar value.
// label = yes if pKi is not less than 7, otherwise no

Study these solved cases before continuing.
NS(=O)(=O)c1ccc(CCO)cc1; no
CCOc1ccc2nc(S(N)(=O)=O)sc2c1 [ETHOXZOLAMIDE]; yes
Nc1ccc(S(N)(=O)=O)cc1 [SULFANILAMIDE]; no

q: Would you say Cc1ccc(S(N)(=O)=O)cc1 [P-TOLUENESULFONAMIDE] shows pKi at minimum 7?
a: no

---

Protein target, amino acids: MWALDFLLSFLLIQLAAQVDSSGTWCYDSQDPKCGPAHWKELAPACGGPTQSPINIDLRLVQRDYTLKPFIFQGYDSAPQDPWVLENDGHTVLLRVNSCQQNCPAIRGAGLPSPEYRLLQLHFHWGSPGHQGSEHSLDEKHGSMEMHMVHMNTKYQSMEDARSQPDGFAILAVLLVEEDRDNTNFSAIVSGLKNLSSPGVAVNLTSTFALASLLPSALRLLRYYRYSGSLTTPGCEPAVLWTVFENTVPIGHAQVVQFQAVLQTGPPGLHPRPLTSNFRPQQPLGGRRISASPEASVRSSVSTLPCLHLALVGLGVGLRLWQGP
Simple rule here: Ki less than 80 nM is Satisfied, otherwise Not satisfied.

NS(=O)(=O)c1nnc(NS(=O)(=O)c2ccccc2)s1 [BENZOLAMIDE]; Satisfied
CCN[C@H]1CN(CCCOC)S(=O)(=O)c2sc(S(N)(=O)=O)cc21 [BRINZOLAMIDE]; Satisfied
NS(=O)(=O)c1cc(Cl)c(Cl)c(S(N)(=O)=O)c1 [DICHLORPHENAMIDE]; Not satisfied

q: hey, is Ki for `Nc1ccc(S(=O)(=O)NCCc2ccc(S(N)(=O)=O)cc2)cc1` lower than 80 nM or not?
a: Satisfied

q: Queued: `Nc1ccc(S(N)(=O)=O)cc1Br`
a: Not satisfied

---

- Assayed system: Carbonic anhydrase 6 (Homo sapiens)
- Sequence (P23280 whole entry): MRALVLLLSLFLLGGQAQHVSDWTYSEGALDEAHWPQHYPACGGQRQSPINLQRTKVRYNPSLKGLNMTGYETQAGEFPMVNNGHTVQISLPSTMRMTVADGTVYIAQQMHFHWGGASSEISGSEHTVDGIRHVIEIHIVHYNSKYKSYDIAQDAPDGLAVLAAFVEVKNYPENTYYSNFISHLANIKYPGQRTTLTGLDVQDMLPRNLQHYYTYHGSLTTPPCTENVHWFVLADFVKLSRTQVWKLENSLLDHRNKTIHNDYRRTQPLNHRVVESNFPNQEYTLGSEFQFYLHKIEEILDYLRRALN
Property measured: pKi
// pKi is dimensionless: -log10 of concentration (M)

q: I am curious: what pKi value has been reported for Cc1ccc(-c2cc(C(F)(F)F)nn2-c2ccc(S(N)(=O)=O)cc2)cc1 [CELECOXIB] ?
a: 7.03

---

Protein target, amino acids: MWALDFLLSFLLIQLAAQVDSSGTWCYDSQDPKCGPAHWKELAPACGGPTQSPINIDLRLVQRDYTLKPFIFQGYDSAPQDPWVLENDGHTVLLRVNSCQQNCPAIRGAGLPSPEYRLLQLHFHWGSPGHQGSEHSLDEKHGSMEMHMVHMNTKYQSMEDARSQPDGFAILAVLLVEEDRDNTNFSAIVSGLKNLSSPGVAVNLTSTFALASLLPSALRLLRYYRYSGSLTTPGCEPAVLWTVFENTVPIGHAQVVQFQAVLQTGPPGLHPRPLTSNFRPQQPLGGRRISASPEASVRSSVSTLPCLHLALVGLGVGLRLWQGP
Simple rule here: Ki less than 70 nM is Y, otherwise N.

q: hey, is Ki for NS(=O)(=O)Cc1noc2ccccc12 [ZONISAMIDE] lower than 70 nM or not?
a: N

q: Queued: `Nc1ccccc1S(N)(=O)=O`
a: N

q: Queued: `NS(=O)(=O)c1nc2ccc(O)cc2s1`
a: Y

q: Queued: NS(=O)(=O)c1ccc(C(=O)O)cc1 [CARZENIDE]
a: N

q: Queued: `Nc1nccc(Nc2ccc(S(N)(=O)=O)cc2)n1`
a: Y

q: Queued: `Nc1ccc(S(=O)(=O)NCc2ccc(S(N)(=O)=O)cc2)cc1`
a: Y

q: Queued: NCc1ccc(S(N)(=O)=O)cc1 [MAFENIDE]
a: N
